# assay-system: UniProt Q14833
# Sequence (Q14833 33-912): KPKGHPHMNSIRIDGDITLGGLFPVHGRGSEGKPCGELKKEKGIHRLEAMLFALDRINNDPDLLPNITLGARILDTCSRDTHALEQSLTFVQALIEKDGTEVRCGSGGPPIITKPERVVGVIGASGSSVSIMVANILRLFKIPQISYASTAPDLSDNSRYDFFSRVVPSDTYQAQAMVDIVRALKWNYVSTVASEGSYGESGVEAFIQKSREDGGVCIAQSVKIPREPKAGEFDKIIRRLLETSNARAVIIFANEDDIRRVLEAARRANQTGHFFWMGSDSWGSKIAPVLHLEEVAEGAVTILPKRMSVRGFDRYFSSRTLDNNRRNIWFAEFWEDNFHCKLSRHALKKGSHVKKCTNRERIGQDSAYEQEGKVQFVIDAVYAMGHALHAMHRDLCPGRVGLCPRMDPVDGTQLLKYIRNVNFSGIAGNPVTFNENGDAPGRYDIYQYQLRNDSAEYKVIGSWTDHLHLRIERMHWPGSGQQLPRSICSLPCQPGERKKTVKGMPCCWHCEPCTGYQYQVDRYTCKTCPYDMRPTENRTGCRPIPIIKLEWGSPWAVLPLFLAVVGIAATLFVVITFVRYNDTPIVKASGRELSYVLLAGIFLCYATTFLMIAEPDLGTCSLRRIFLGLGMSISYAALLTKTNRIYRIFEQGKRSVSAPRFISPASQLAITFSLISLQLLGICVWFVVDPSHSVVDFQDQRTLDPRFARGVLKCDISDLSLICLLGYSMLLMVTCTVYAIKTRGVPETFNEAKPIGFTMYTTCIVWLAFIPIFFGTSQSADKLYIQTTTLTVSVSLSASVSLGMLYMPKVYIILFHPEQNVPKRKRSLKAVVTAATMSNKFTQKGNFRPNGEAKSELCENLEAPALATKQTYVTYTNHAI
# assay-explanation: human mGluR4 potentiation assay, CHO cells transfected with human mGluR4, Ca2+-sensitive dye
# test-settings: human mGlu4; read-out: hmGlu4 EC50
property: pEC50
Please treat pEC50 as minus the base-10 logarithm of the molar concentration.

Known results for molecules:
* O=C(NC1CC(F)(F)C1)c1nccc2cc(Nc3n[nH]c4cccnc34)ccc12 | 8.00
* O=C(NC1CC(F)(F)C1)c1nccc2cc(Nc3n[nH]c4ncccc34)ccc12 | 7.25
* O=C(NC1CC(F)C1)c1nccc2cc(Nc3n[nH]c4cccnc34)ccc12 (stereo not shown) | 7.68
* O=C(c1nccc2cc(Nc3n[nH]c4cccnc34)ccc12)N1CC[C@H](F)C1 | 6.44
* COC1CC(NC(=O)c2nccc3cc(Nc4n[nH]c5cccnc45)ccc23)C1 (stereo not shown) | 7.59

Memo: O=C(NC1CCOC1)c1nccc2cc(Nc3n[nH]c4cccnc34)ccc12 (stereo not shown) , reported pEC50: 7.22

Memo: O=C(c1nccc2cc(Nc3n[nH]c4cccnc34)ccc12)N1CCC(F)(F)CC1 , reported pEC50: 7.24
